Measured melting point, listed per entry.

| compound | melting point |
| --- | --- |
| CCCCOc1cccc2c1cnn2-c1ccnc(N[C@H]2CC[C@H](O)CC2)n1 | 195 to 196 °C |
| CCOC(=O)[C@H]1CC[C@H](Nc2nccc(-n3ccc4c(OCCCS(N)(=O)=O)cccc43)n2)CC1 | 145 to 148 °C |
| CC(=O)N[C@H]1CC[C@H](Nc2nccc(-n3ncc4c(OCCCO)cccc43)n2)CC1 | 226 to 228 °C |
| C[C@@H](CO)COc1cccc2c1cnn2-c1ccnc(N[C@H]2CC[C@H](C(=O)N3CCCC3)CC2)n1 (stereo in doubt) | 199.4 to 200.4 °C |
| OCC(O)COc1ccc2cnn(-c3ccnc(N[C@H]4CC[C@H](O)CC4)n3)c2c1 (some centres unmarked) | 223.8 to 224.7 °C |
| NS(=O)(=O)CCCOc1cccc2c1cnn2-c1ccnc(N[C@H]2CC[C@H](C(=O)N3CCCC3)CC2)n1 | 249 to 250 °C |
| CS(=O)(=O)CCCOc1cccc2c1cnn2-c1ccnc(N[C@H]2CC[C@H](C(=O)N3CCC(O)CC3)CC2)n1 | 143 to 145 °C |
| OCCOc1ccc2cnn(-c3ccnc(N[C@H]4CC[C@H](O)CC4)n3)c2c1 | 216.5 to 218.5 °C |

###

Measured melting point, listed per entry.

| smiles_text | melting point |
| --- | --- |
| Oc1ccc2c(ccn2-c2ccnc(N[C@H]3CC[C@H](O)CC3)n2)c1 | 246.5 to 248 °C |
| CN([C@H]1CC[C@H](Nc2nccc(-n3ccc4c(C(C)(C)O)cccc43)n2)CC1)S(C)(=O)=O | 149 to 150 °C |
| CC(=O)N[C@H]1CC[C@H](Nc2nccc(-n3ncc4c(OCCO)cccc43)n2)CC1 | 242.7 to 245.5 °C |
| O[C@H]1CC[C@H](Nc2nccc(-c3n[nH]c4c(C(F)(F)F)cccc34)n2)CC1 | 265.5 to 270 °C |

###

| compound | melting point |
| --- | --- |
| CN([C@H]1CC[C@H](Nc2nccc(-c3noc4c(OCCCS(C)(=O)=O)cccc34)n2)CC1)S(C)(=O)=O | 213.5 to 214.2 °C |
| N#CCc1cccc2c1ccn2-c1ccnc(N[C@H]2CC[C@H](C(=O)N3CCCC3)CC2)n1 | 136 to 137.5 °C |
| NS(=O)(=O)CCCOc1cccc2c1cnn2-c1ccnc(N[C@H]2CC[C@H](C(=O)N3CC[C@H](O)C3)CC2)n1 (stereo in doubt) | 161 to 162 °C |
| CCNC(=O)[C@H]1CC[C@H](Nc2nccc(-n3ccc4c(OCCCS(=O)(=O)NC)cccc43)n2)CC1 | 201.7 to 203.2 °C |
| CC(C)COc1cccc2c1cnn2-c1ccnc(N[C@H]2CC[C@H](N(C)S(C)(=O)=O)CC2)n1 | 227 to 228 °C |
| NS(=O)(=O)CCCOc1cccc2c1cnn2-c1ccnc(N[C@H]2CC[C@H](C(=O)N3CC[C@@H](O)C3)CC2)n1 (stereo in doubt) | 178 to 179 °C |
| CN(C)S(=O)(=O)N[C@H]1CC[C@H](Nc2nccc(-n3ccc4c(C5(O)CCOCC5)cccc43)n2)CC1 | > 300 °C |
| CC(=O)N[C@H]1CC[C@H](Nc2nccc(-n3ccc4c(S(C)(=O)=O)cccc43)n2)CC1 | 264 to 265 °C |
| CS(=O)(=O)Nc1cccc2c1ccn2-c1ccnc(N[C@H]2CC[C@H](O)CC2)n1 | 240.2 to 240.8 °C |
| CCS(=O)(=O)Cc1cccc2c1ccn2-c1ccnc(N[C@H]2CC[C@H](O)CC2)n1 | 193.3 to 194.6 °C |
| CN([C@H]1CC[C@H](Nc2nccc(-n3ccc4c(C(C)(C)C#N)cccc43)n2)CC1)S(C)(=O)=O | 189 to 190 °C |
| CS(=O)(=O)CCCOc1cccc2c1cnn2-c1ccnc(N[C@H]2CC[C@H](C(=O)N3CC[C@H](O)C3)CC2)n1 (stereo in doubt) | 175 to 176 °C |
| N#Cc1cn(-c2ccnc(N[C@H]3CC[C@H](C(=O)N4CCC(O)CC4)CC3)n2)c2ccccc12 | 259 to 260 °C |
| CC(C)(O)c1cccc2c1cnn2-c1ccnc(N[C@H]2CC[C@H](N3CCCS3(=O)=O)CC2)n1 | 204 to 205 °C |
| c1ccc2c(c1)ccn2-c1ccnc(NC2CCCCC2)n1 | 192.5 to 193 °C |
| CS(=O)(=O)CCCOc1cccc2c1cnn2-c1ccnc(N[C@H]2CC[C@H](C(=O)N3CCCC3)CC2)n1 | 183.4 to 184.5 °C |
| CS(=O)(=O)CCCOc1cccc2c1ccn2-c1ccnc(N[C@H]2CC[C@H](N)CC2)n1.Cl | 291 to 292 °C |
| COC(=O)c1cccc2c1ccn2-c1ccnc(N[C@H]2CC[C@H](O)CC2)n1 | 206.7 to 208.3 °C |
| CCOC(=O)[C@H]1CC[C@H](Nc2nccc(-n3ncc4c(OCCCS(N)(=O)=O)cccc43)n2)CC1 | 166 to 167 °C |
| CC(C)(O)COc1cccc2c1ccn2-c1ccnc(N[C@H]2CC[C@H](C(=O)N3CCC(O)CC3)CC2)n1 | 174 to 176.9 °C |
| C[C@@H](CO)COc1cccc2c1cnn2-c1ccnc(N[C@H]2CC[C@H](C(C)(C)O)CC2)n1 (stereo in doubt) | 211 to 212.5 °C |
| CC(C)(CO)COc1cccc2c1cnn2-c1ccnc(N[C@H]2CC[C@H](C(=O)N3CC[C@@H](O)C3)CC2)n1 (stereo in doubt) | 214 to 215 °C |
| CC(=O)N[C@H]1CC[C@H](Nc2nccc(-n3ccc4c(COCCS(C)(=O)=O)cccc43)n2)CC1 | 208.5 to 209.7 °C |
| CC(O)c1cccc2c1ccn2-c1ccnc(N[C@H]2CC[C@H](NS(C)(=O)=O)CC2)n1 (some centres unmarked) | 244.5 to 245.3 °C |
| CC(C)C(=O)Nc1cccc2c1ccn2-c1ccnc(N[C@H]2CC[C@H](O)CC2)n1 | 211.8 to 212.6 °C |
| CNC(=O)COc1cccc2c1cnn2-c1ccnc(N[C@H]2CC[C@H](O)CC2)n1 | 226 to 227 °C |
| COc1cccc2c1cnn2-c1ccnc(N[C@H]2CC[C@H](C(=O)N(C)C)CC2)n1 | 278.8 to 280 °C |
| CS(=O)(=O)N[C@H]1CC[C@H](Nc2ncc(F)c(-n3ccc4ccccc43)n2)CC1 | 270 to 270.5 °C |
| COc1cccc2c1c(C(N)=O)cn2-c1ccnc(N[C@H]2CC[C@H](C(=O)N3CCC(O)CC3)CC2)n1 | 278 to 280 °C |
